B1: glmS ribozyme (parent)
chain: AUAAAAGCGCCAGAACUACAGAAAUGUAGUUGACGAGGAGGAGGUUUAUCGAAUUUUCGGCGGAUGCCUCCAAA

# Variants of: B1
# experiment notes: self-cleavage kobs at 2500 uM GlcN6P; higher = faster cleavage; RNA array
# test conditions: with glucosamine-6-phosphate
Fewer inactive variants are shown than the library holds.
Everything with self-cleavage kobs at 2500 uM GlcN6P lower than 0.0003 s⁻¹ is Not met; everything else, including exactly 0.0003 s⁻¹, is Met.

sequence | qualitative label
AUAAAAGCGCCAGAACUACAGAAAUGUAGUUGACGAUGAGGAGGUUUAUCGAUUUUACGGCGGAUGCCUCCAAA | Not met
AUAAAAGCGCCAGAACUACAGAAAUGUAGUUGACGAGGAGGUGGUUGAUCGAAUUUUCGGCGGAUGCCACCAAA | Met
AUAAAAGCGCCAGAACUACAGAAAUGUAGUUGACGAGGAACAGGUUUAUCGAAUUUUCGGGGGAUGCCUCCAAA | Not met
AUAAAAGCGCGAGAACUACAGAAAUGUAGUUGACAAGGAGGAGGUUUAUCGAAUUUUGGGCGGAUGCCUCCAAA | Not met
AUAAAAGCGCCAGAACUACAGAAAUGUAGUUGACGAGGAGGAAGUUUAUCGAAUUUUAGGCGGAUGCCUCCAAA | Not met

Task: Entry AUAAAAGCGCCAGAACUACAGAAAUGUAGUUGACGAGAAGGAGGUUUAUCGAAUUUGCGGCGGAUGCCUCCAAA : is its self-cleavage kobs at 2500 uM GlcN6P no less than 0.0003 s⁻¹?
Output: Not met

Task: // repeat for AUAAAAGCGCCAGAACUACAGAAAUGUAGUUGACGAGGAGGAGUUUUAUCGAAUAUUCGGCGGAUGCCUCCAAA and report
Output: Not met
